All figures here come from paper PMC3831292.

Biological target: hTASK-1 (K2P3.1, KCNK3) (Homo sapiens)
Construct: full-length cDNA in pIRES-CD8 vector; cRNA injected into Xenopus laevis oocytes
Sequence (O14649 whole entry): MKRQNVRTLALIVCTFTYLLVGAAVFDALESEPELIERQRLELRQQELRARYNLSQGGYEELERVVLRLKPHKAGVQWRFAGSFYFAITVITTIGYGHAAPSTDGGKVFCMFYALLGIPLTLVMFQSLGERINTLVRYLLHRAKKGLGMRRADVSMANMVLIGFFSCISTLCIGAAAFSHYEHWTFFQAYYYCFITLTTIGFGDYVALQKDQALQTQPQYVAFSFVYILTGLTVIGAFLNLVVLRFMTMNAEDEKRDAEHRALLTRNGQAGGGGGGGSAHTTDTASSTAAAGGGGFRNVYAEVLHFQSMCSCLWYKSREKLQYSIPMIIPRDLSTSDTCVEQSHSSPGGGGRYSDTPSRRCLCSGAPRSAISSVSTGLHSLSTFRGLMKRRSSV
Assay: two-electrode voltage clamp, Xenopus oocytes
Details: read-out: TASK-1
measure name: IC50 (µM)
Write the number in µM without appending the unit.

Reference set (2 entries):
{"smi": "CCCCC[C@H](O)CC(=O)CCc1ccc(O)c(OC)c1", "quantity unit": "µM", "IC50": 227}
{"smi": "COc1cc(CNC(=O)CCCC/C=C/C(C)C)ccc1O", "quantity unit": "µM", "IC50": 61.1}

Pending compound:
In: Return the recorded IC50 value; entry: CC1(C)CCC[C@]2(C)[C@@H](C=O)C(C=O)=CC[C@@H]12
Out: 485
